Before we begin, note that these pIC50 values for Serine/threonine-protein kinase pim-2 (Homo sapiens, UniProt Q9P1W9) originate from several publications.
Here pIC50 is given on a logarithmic scale as minus log10 of the concentration in mol/L.

Solved entries:
{"smiles_repr": "Nc1ccc(-c2nccs2)nc1-c1cc2c(N3CCC[C@H](N)C3)c(F)cnc2cn1", "experimental_readout": "pIC50", "quantitative_readout": 7.40}
{"smiles_repr": "CN1CCCN(c2cncc(-c3cccc(/C=C/c4nnn[nH]4)c3)n2)CC1", "experimental_readout": "pIC50", "quantitative_readout": 7.05}
{"smiles_repr": "CCNCCCNc1cncc(-c2cccc(/C=C/C(=O)O)c2)n1", "experimental_readout": "pIC50", "quantitative_readout": 6.92}

Given the compound C[C@@H]1C[C@H](N)C[C@H](c2ccncc2NC(=O)c2ccc(F)c(-c3c(F)cc([C@@H](O)CO)cc3F)n2)C1 , what is its reported pIC50? 8.52

Given the compound CC(C)Oc1ccc(F)c(-c2nc(C(=O)Nc3cnccc3[C@@H]3C[C@H](C)C[C@H](N)C3)cs2)c1F , what is its reported pIC50? 7.70

---

Before we begin, note that these pIC50 values for Serine/threonine-protein kinase pim-2 (Homo sapiens) originate from several publications.
pIC50: −log10 of the molar value.

Solved entries:
{"smiles_repr": "CN1CCOc2c(NCC34CCN(CC3)C4)nn3c(-c4cccc(OC(F)(F)F)c4)nnc3c21", "pIC50": "< 6.00"}
{"smiles_repr": "CN1CCC(CNc2ccc3nnn(-c4cccc(OC(F)(F)F)c4)c3n2)CC1", "pIC50": "< 6.00"}
{"smiles_repr": "FC(F)(F)Oc1cccc(-n2nnc3cc(Br)c(NCC4CCNCC4)nc32)c1", "pIC50": "6.00 to 7.00"}
{"smiles_repr": "Cc1cc(-c2cnc3ccc(NC45CCC(O)(CC4)C5)nn23)n[nH]1", "pIC50": "< 7.00"}
{"smiles_repr": "CN1CCC(Nc2nn3c(-c4cccc(OC(F)(F)F)c4)nnc3c3c2OCCN3C)CC1", "pIC50": "< 6.00"}

# context switch: different compound, same pIC50
Given the compound CC(=O)NCCNc1ccc2nnn(-c3cccc(OC(F)(F)F)c3)c2n1 , what is its reported pIC50? < 6.00

---

Before we begin, note that these IC50 values for Serine/threonine-protein kinase pim-2 (Homo sapiens) originate from several publications.
Lab note - cut at 8 nM for IC50: 1 if strictly below, 0 if not.

{"compound": "C[C@H]1C[C@@H](c2ccncc2NC(=O)c2ccc(F)c(-c3c(F)cc(OC4CCOC4)cc3F)n2)C[C@@H](N)[C@@H]1O (stereo in doubt)", "assigned_class": 1}
{"compound": "FC(F)(F)Oc1cccc(-n2nnc3ccc(N4CCCC5(CCNCC5)C4)nc32)c1", "assigned_class": 0}
{"compound": "COC(C)(C)c1cc(F)c(-c2nc(C(=O)Nc3cnccc3[C@H]3C[C@@H](N)[C@H](O)[C@@H](C)C3)c(N)cc2F)c(F)c1", "assigned_class": 1}
{"compound": "CO[C@H]1C[C@H](N)CN(c2ccncc2NC(=O)c2csc(-c3c(F)cccc3F)n2)C1", "assigned_class": 0}
{"compound": "O=C(O)c1cc(F)cc2c1nc(Nc1cccc(Cl)c1)c1ccncc12", "assigned_class": 0}

Is 8 nM strictly greater than the compound's reported IC50? compound: Nc1ccc(-c2ccc(S(N)(=O)=O)cc2)nc1-c1cc2c(N3CCC[C@H](N)C3)ccnc2cn1 0

Is 8 nM strictly greater than the compound's reported IC50? compound: N[C@H]1CCCN(c2ccnc3cnc(-c4cccc(-c5nccs5)n4)cc23)C1 0

---

Before we begin, note that these pIC50 values for Serine/threonine-protein kinase pim-2 (Homo sapiens) originate from several publications.
pIC50: −log10 of the molar value.

Solved entries:
{"compound": "FC(F)(F)Oc1cccc(-c2nnc3c4c(c(NCC5CC5)nn23)OCCO4)c1", "pIC50": "> 7.00"}
{"compound": "CCCNc1ccc2nnn(-c3ccc(O)cc3)c2n1", "pIC50": "< 6.00"}
{"compound": "FC(F)(F)Oc1cccc(-n2nnc3ccc(NCC4CCN(CC5CC5)CC4)nc32)c1", "pIC50": "< 6.00"}
{"compound": "c1ccc(Nc2nc3c(-c4nnc[nH]4)cccc3c3cnccc23)cc1", "pIC50": "> 6.00"}
{"compound": "CCN1CCCC1CNc1nc2c(-c3nc[nH]n3)cccc2c2cnccc12 (stereo not drawn)", "pIC50": "< 5.96"}

# context switch: different compound, same pIC50
Given the compound CNC1CCN(c2ccc3nnn(-c4cccc(OC(F)(F)F)c4)c3n2)CC1 , what is its reported pIC50? < 6.00

---

pIC50: −log10 of the molar value.
Before we begin, note that these pIC50 values for Serine/threonine-protein kinase pim-2 (Homo sapiens, UniProt Q9P1W9) originate from several publications.

{"smiles_repr": "Nc1ccc(-n2nnc3ccc(NCC4CCNCC4)nc32)cn1", "pIC50": "< 6.00"}
{"smiles_repr": "CN1CCOc2c(N3CC4(CCNCC4)C3)nn3c(-c4cccc(OC(F)(F)F)c4)nnc3c21", "pIC50": "< 6.00"}
{"smiles_repr": "CC(C)N1CCC(CNc2ccc3nnn(-c4cccc(OC(F)(F)F)c4)c3n2)CC1", "pIC50": "< 6.00"}
{"smiles_repr": "CN1CCOc2c1c(NCC1CCN(C(=O)OC(C)(C)C)CC1)nn1c(-c3cccc(OC(F)(F)F)c3)nnc21", "pIC50": "< 6.00"}
{"smiles_repr": "Fc1ccc(Nc2nc3c(-c4nnc[nH]4)cccc3c3cnccc23)cc1Cl", "pIC50": "> 6.30"}
{"smiles_repr": "CN(c1ccc(Cl)cc1)c1nc2c(-c3nc[nH]n3)cccc2c2cnccc12", "pIC50": "> 5.30"}
{"smiles_repr": "Nc1sc(-c2c(F)cccc2F)nc1C(=O)Nc1cnccc1N1CCC(F)CC1", "pIC50": 7.26}

Given the compound CN1CCOc2c1c(NC1CCOCC1)nn1c(-c3cccc(OC(F)(F)F)c3)nnc21 , what is its reported pIC50? > 7.00

---

pIC50: −log10 of the molar value.
Before we begin, note that these pIC50 values for Serine/threonine-protein kinase pim-2 (Homo sapiens) originate from several publications.

{"compound": "CN1CCC(CNc2nn3c(-c4cccc(OC(F)(F)F)c4)nnc3c3c2N(C)C(C)(C)CO3)CC1", "pIC50": "6.00 to 7.00"}
{"compound": "C[C@H]1CN(c2c(NC(=O)c3ccc(F)c(-c4c(F)cccc4F)n3)cnc3c2CC[C@H]3O)C[C@@H](N)[C@@H]1O", "pIC50": "≥ 7.00"}
{"compound": "CC1COc2c(c(NCC3CCN(C)CC3)nn3c(-c4cccc(OC(F)(F)F)c4)nnc23)N1C (stereo not shown)", "pIC50": "6.00 to 7.00"}
{"compound": "Fc1ccccc1Nc1nc2c(-c3nnc[nH]3)cccc2c2cnccc12", "pIC50": "> 7.00"}
{"compound": "OCCNc1ccc2nnn(-c3cccc(OC(F)(F)F)c3)c2n1", "pIC50": "< 6.00"}

# context switch: different compound, same pIC50
Lab note: need pIC50 for O=C(O)c1cc(F)cc2c1nc(Nc1cccc(Cl)c1)c1cnccc12 on Serine/threonine-protein kinase pim-2 (Homo sapiens), anyone have it? < 5.96

---

Before we begin, note that these IC50 values for Serine/threonine-protein kinase pim-2 (Homo sapiens, UniProt Q9P1W9) originate from several publications.

Solved entries:
{"smiles_repr": "c1cc(-c2nc[nH]n2)c2nc(NC3CC3)c3ccncc3c2c1", "result": "< 0.1 µM"}
{"smiles_repr": "CN1CCN(c2nc3c(-c4nc[nH]n4)cccc3c3cnccc23)CC1", "result": "> 1.1 µM"}
{"smiles_repr": "CCN1CCOc2c1c(NCC1CC1)nn1c(-c3cccc(OC(F)(F)F)c3)nnc21", "result": "0.1 to 1 µM"}
{"smiles_repr": "FC(F)(F)Oc1cccc(-n2nnc3ccc(N4CCC5(CCNCC5)C4)nc32)c1", "result": "> 1 µM"}
{"smiles_repr": "Fc1ccc(-n2nnc3ccc(N4CCCCCC4)nc32)cc1", "result": "> 1 µM"}
{"smiles_repr": "OC1CCN(c2ccc3nnn(-c4cccc(OC(F)(F)F)c4)c3n2)CC1", "result": "0.1 to 1 µM"}

Given the compound FC(F)(F)Oc1cccc(-n2nnc3ccc(N4CCC5(CCNC5)CC4)nc32)c1 , what is its reported IC50? > 1 µM

Given the compound CCCNc1ccc2nnn(-c3cccc(OC(F)(F)F)c3)c2n1 , what is its reported IC50? > 1 µM

---

Before we begin, note that these IC50 values for Serine/threonine-protein kinase pim-2 (Homo sapiens, UniProt Q9P1W9) originate from several publications.

Solved entries:
{"smiles_repr": "CN1CCOc2c1c(NCCc1cccnc1)nn1c(-c3cccc(OC(F)(F)F)c3)nnc21", "IC50": "0.1 to 1 µM"}
{"smiles_repr": "FC(F)(F)Oc1cccc(-n2nnc3ccc(N4CCOC5(CCNCC5)C4)nc32)c1", "IC50": "> 1 µM"}
{"smiles_repr": "CS(=O)(=O)N1CCN(c2ccc3nnn(-c4cccc(OC(F)(F)F)c4)c3n2)CC1", "IC50": "> 1 µM"}

Given the molecule COCCNc1nc2c(-c3nc[nH]n3)cccc2c2cnccc12 , what is its reported IC50? < 0.5 µM
